Below is a list of entries, each paired with its recorded protein stability index value.
B1: FAM50A (parent)
chain: KKREKQREQMEQMKQRIAEENIMK

- Variants of: B1
- test.method.notes: protein stability index of a GFP-peptide fusion (GPS, HEK-293T) (PSI 1-6); higher = more stable;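 note: lentivirally expressed fusions sorted by FACS into six bins by GFP to DsRed ratio, PSI derived from sequencing read proportions per bin multiplied by bin number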
- condition.parameters: c terminus: a fixed tail appended
quantity.measured: protein stability index

variant.string	quantity.measured	value.observed
I22T	protein stability index	5.46
Q12D	protein stability index	5.02
M23N	protein stability index	4.66
K24T	protein stability index	4.95
M10W	protein stability index	4.7
Q15Y	protein stability index	4.14
M10V	protein stability index	4.37
E4G	protein stability index	4.71
K24L	protein stability index	4.13
Q12A	protein stability index	4.44
K1D	protein stability index	4.87
Q6N	protein stability index	5.3
N21H	protein stability index	4.46
E4Y	protein stability index	4.27
I22P	protein stability index	5.12
Q6T	protein stability index	4.9
E20G	protein stability index	4.34
K1I	protein stability index	4.98
R7V	protein stability index	4.98
K5M	protein stability index	4.95
R7W	protein stability index	4.13
A18W	protein stability index	4.09
M10K	protein stability index	4.71
I22V	protein stability index	4.85
E4W	protein stability index	3.96
Q6S	protein stability index	4.96
Q9S	protein stability index	4.74
N21M	protein stability index	4.64
M10F	protein stability index	4.15
K5N	protein stability index	5.25
K14S	protein stability index	5.06
K14G	protein stability index	5.02
K24Q	protein stability index	4.86
K2I	protein stability index	4.63
E4V	protein stability index	4.49
I17E	protein stability index	5.1
K14M	protein stability index	4.53
R16A	protein stability index	5.42
E11I	protein stability index	4.4
Q15F	protein stability index	4.44
M13P	protein stability index	4.99
I17T	protein stability index	5.3
K5F	protein stability index	4.8
M23E	protein stability index	5.25
I17S	protein stability index	5.3
R7G	protein stability index	5.21
